assay procedure: fluconazole-exposed Candida albicans growth modulators – fluorescence, retest, confirmation (AID 2467)
Type: functional, cell-based
Activity calls are given as the source filed them.
measured quantity: EC50

> print(dat)
                                   molecule    value.measured
1  CCOc1ccccc1N1CCN(CC(O)COC2CCCc3ccccc32)CC1 (centres undefined)  1020 nM (active)
2  COc1ccc(C(=O)NNC(=S)NC(=O)c2cccc([N+](=O)[O-])c2)cc1  2630 nM (active)
3          COc1cccc(N=Nc2ccc(O)c3ncccc23)c1   790 nM (active)

// next item, EC50 requested
### Prompt # get_value(readout='EC50', item= O=C(NNC(=S)NC1CCCCC1)c1ccccc1Br )
### Response 2940 nM (active)

###

assayed system: ATP-dependent molecular chaperone HSP82 (Candida albicans (strain WO-1) (Yeast), UniProt C4YTQ8)
Sequence (C4YTQ8 whole entry): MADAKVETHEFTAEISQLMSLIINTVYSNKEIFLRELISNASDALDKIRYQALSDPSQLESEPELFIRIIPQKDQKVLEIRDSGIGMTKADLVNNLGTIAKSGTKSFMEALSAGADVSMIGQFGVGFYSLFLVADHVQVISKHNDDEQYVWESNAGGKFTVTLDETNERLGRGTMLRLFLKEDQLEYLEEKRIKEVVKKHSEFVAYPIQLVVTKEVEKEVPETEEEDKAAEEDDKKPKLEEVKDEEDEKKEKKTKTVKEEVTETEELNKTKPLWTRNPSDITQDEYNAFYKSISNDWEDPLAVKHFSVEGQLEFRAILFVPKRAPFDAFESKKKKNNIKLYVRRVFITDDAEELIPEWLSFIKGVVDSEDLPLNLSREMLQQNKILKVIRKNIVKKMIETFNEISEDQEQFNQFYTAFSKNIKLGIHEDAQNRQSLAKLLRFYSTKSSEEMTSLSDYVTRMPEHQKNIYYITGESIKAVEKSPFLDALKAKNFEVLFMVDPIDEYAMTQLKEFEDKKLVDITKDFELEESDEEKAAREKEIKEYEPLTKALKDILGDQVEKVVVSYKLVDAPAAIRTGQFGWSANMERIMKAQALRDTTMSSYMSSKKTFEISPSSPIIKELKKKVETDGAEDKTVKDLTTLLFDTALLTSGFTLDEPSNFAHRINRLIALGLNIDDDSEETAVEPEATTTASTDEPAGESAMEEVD
assay procedure: steroid-induced GRE reporter decrease in yeast – S. cerevisiae, luminescence, Hsp90 inhibitor project, dose response (AID 2400);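 also: beta-galactosidase luminescence from glucocorticoid response element reporter as proxy for Hsp90 function; inhibitor potency where signal loss means Hsp90 inhibition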
Format: functional, cell-based
Active and inactive are the calls of the source.
# valid calls are 1 for active, -1 for inactive; nothing else

> print(dat)
                                   compound  category.label
1          COc1cccc(N=Nc2ccc(O)c3ncccc23)c1               1
2  CCN(CC)c1ccc2cc(S(=O)(=O)c3ccc(C)cc3)c(=O)oc2c1               1
3  O=[N+]([O-])c1cccc(-c2cc(-c3cc(Br)ccc3O)n[nH]2)c1               1

Then this compound:
### Prompt Hello, I am checking results. What call was entered for CCCCC(=O)NC(c1ccc(N(CC)CC)cc1)c1ccc2cccnc2c1O (centres undefined) ?
### Response -1

###

assay procedure: Trypanosoma cruzi growth suppression in host cells – NIH3T3 host cells, beta-gal luminescence, confirmation (AID 2044);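 also: intracellular parasites grown in NIH/3T3 mouse fibroblasts as host cells; luminescent beta-galactosidase reporter signal from transgenic T. cruzi replicating inside host cells; inhibitors lower the luminescence signal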
Format: functional, cell-based
The source made the active and inactive calls.
measured quantity: EC50

Solved cases (3 shown):
> print(dat)
                                   molecule    value.measured
1  S=C(Nc1cccc(Br)c1)N1CCn2cccc2C1c1cccnc1 (centres undefined)  1780 nM (active)
2  Fc1ccc(CN2CCCN(Cc3nc(-c4ccc5c(c4)OCO5)no3)CC2)cc1   103 nM (active)
3  CC(Nc1nc(N2CCCCC2)nc2ccccc12)c1ccccc1 (centres undefined)   773 nM (active)

// next item, EC50 requested
### Prompt # get_value(readout='EC50', item= CCOc1cc(N2CCOCC2)c(OCC)cc1NC(=O)c1ccc2ccccc2n1 )
### Response 2630 nM (active)

###

Dear all, this message contains AC50 results, target or system Cytochrome P450 2D6 (Homo sapiens, UniProt P10635).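 Also: CYP2D6 member of a cytochrome P450 panel assay.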

Solved cases (4 shown):
> print(dat)
                                   molecule            value.measured
1  COc1cccc(-c2nc(NCc3ccccc3OC)c3ccccc3n2)c1      10 µM (inconclusive)
2  CCC(=O)Nc1ccccc1C(=O)OCC(=O)c1cccc2ccccc12  0.0891 µM (inconclusive)
3      O=C(/C=C\NCC(=O)c1ccccc1)c1ccc(F)cc1    15.8 µM (inconclusive)
4  CN(C)S(=O)(=O)Oc1ccsc1C(=O)Nc1cccc(Cl)c1    25.1 µM (inconclusive)

### Prompt # get_value(readout='AC50', item= [O-][S+](Cc1ccc(Br)cc1)Cc1nnc(SCc2ccc(Cl)cc2)n1-c1ccccc1 (stereo unspecified) )
### Response 12.6 µM (inconclusive)

### Prompt # get_value(readout='AC50', item= FC(F)(F)c1cccc(NC(=S)Nc2cccc(Cl)c2)c1 )
### Response 28.2 µM (inconclusive)

### Prompt # get_value(readout='AC50', item= C[N+]1(C)CCC(=C(c2ccccc2)c2ccccc2)CC1 )
### Response 12.6 µM (inconclusive)

### Prompt # get_value(readout='AC50', item= COc1ccc(-n2nnnc2SCC(=O)Nc2ccccc2)cc1 )
### Response 2.51 µM (inconclusive)

### Prompt # get_value(readout='AC50', item= FC(F)(F)c1ccc(N2CCN(c3cc(-c4ccccc4)nc4ncnn34)CC2)nc1 )
### Response 11.2 µM (inconclusive)

### Prompt # get_value(readout='AC50', item= O=C(c1ccco1)N1CCC[C@@]2(CCN(c3cccc(-c4ccccc4)c3)C2)C1 )
### Response 25.1 µM (inconclusive)

### Prompt # get_value(readout='AC50', item= CC(C)=C[C@H]1[C@@H](C(=O)OCc2cc3c(cc2Cl)OCO3)C1(C)C )
### Response 5.01 µM (inconclusive)

Every entry's value here was drawn from ChEMBL document CHEMBL1201862.
